- measured on: Ba/F3 EGFR-Del19/T790M (Homo sapiens, UniProt P00533, T790M, cells depend on it, form not given)
- Sequence (P00533 with tags, fused parts or gaps DEL746-750/T790M, form open): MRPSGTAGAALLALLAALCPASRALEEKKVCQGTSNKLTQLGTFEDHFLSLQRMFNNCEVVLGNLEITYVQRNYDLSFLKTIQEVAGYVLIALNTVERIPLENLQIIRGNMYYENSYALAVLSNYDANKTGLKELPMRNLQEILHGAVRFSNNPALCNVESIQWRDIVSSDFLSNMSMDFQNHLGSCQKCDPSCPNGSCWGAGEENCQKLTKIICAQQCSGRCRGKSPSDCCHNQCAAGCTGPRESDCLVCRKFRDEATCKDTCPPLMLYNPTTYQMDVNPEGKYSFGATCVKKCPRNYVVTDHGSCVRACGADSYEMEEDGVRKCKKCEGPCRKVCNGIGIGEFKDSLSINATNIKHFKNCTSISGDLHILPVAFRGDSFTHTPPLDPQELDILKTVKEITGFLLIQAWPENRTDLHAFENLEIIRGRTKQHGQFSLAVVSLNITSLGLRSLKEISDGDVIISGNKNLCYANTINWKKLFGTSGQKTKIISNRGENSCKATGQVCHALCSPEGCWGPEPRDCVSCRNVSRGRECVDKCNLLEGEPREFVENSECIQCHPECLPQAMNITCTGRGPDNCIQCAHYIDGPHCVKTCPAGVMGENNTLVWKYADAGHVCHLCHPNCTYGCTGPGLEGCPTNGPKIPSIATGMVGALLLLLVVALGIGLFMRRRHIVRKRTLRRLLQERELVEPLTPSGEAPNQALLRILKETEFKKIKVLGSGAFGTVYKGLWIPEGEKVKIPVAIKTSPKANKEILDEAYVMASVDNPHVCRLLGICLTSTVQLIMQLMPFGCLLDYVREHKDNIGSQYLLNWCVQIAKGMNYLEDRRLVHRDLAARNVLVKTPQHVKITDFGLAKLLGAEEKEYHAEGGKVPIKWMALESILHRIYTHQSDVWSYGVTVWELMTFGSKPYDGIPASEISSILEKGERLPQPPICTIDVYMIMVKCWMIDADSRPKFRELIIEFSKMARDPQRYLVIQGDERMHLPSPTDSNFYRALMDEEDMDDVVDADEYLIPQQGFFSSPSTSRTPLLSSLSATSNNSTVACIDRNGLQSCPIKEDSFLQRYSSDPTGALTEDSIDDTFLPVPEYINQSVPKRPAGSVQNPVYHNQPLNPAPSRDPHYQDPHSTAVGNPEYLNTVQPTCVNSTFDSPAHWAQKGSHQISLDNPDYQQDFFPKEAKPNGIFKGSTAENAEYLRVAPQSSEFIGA
- procedure summary: Ba/F3 viability assay (CellTiter-Glo), DT
- Assay type: cell-based
- test parameters: anti-proliferation, read-out: BaF3 DT IC50
Listed below: GI50 values for each entry.

See these solved cases before continuing.
C[C@H]1CCOc2c(cnn2C)-c2nccc(n2)Nc2cc3c(cn2)c(-c2cccc(CCN4CCOCC4)c2)nn31 [(163)] | 10 to 100 nM
CCCn1cc(-c2nn3c4cc(ncc24)Nc2ccnc(n2)-c2cnn(C)c2OCC[C@@H]3C)cc1CN1CCOCC1 [(152)] | < 10 nM
C[C@H]1CCOc2c(cnn2C)-c2nccc(n2)Nc2cc3c(cn2)c(-c2ccc(CN4CCN(CCCF)CC4)n2C)nn31 [(190)] | < 10 nM
CC1CCOc2c(cnn2C)-c2nccc(n2)Nc2cc3c(cn2)c(-c2cnn(C4CC4)c2)nn31 (stereo not shown) [(64)] | 10 to 100 nM
CC(C)N1CCN(Cc2csc(-c3nn4c5cc(ncc35)Nc3ccnc(n3)-c3cnn(C)c3OCC[C@@H]4C)n2)CC1 [(118)] | 100 to 1000 nM
C[C@H]1CCOc2c(cnn2C)-c2nccc(n2)Nc2cc3c(cn2)c(-c2cc(CN4CCN(C5CC5)CC4)n(C)c2)nn31 [(147)] | < 10 nM

Next compound, GI50 to be filled in.
stdin: Please give the measured GI50 for this compound: C[C@H]1CCOc2c(cnn2C)-c2nccc(n2)Nc2cc3c(cn2)c(-c2ccc(CN4CCN(C5COC5)CC4)n2C)nn31 [(124)]
stdout: < 10 nM
